# System: Zymoseptoria tritici (the causal agent of wheat leaf blotch)
# Assay Protocol: Test D: preventive spray on wheat seedlings, disease rating (100 = 100% control; * 50 ppm, ** 10 ppm, *** 250 ppm)
# Format: in vivo
# Measurement Context: 250 ppm test suspension; wheat seedlings; 100 = 100% disease control
Marks after values point to notes of the source that are not given here.
Recorded Test D disease control rating values for a group of compounds are listed next.

Study these solved cases before continuing.
{"Compound": "N#Cc1ccc(OCC(O)(O)C(F)(F)F)cc1 [compound 142]", "Study System": "Zymoseptoria tritici (the causal agent of wheat leaf blotch)", "Test D disease control rating": "100*** %"}
{"Compound": "N#Cc1cnn(Cc2ccc(OCC(O)(O)C(F)(F)F)cc2)c1 [compound 206]", "Study System": "Zymoseptoria tritici (the causal agent of wheat leaf blotch)", "Test D disease control rating": "93*** %"}
{"Compound": "CCOC(=O)c1cnn(Cc2ccc(O/C=C(\\OC(C)C)C(F)(F)F)cc2)c1 [compound 57]", "Study System": "Zymoseptoria tritici (the causal agent of wheat leaf blotch)", "Test D disease control rating": "28%"}
{"Compound": "CCOC(=O)c1cnn(Cc2ccc(C(O)CC(O)(O)C(F)(F)F)cc2)c1 (stereo not drawn) [compound 51]", "Study System": "Zymoseptoria tritici (the causal agent of wheat leaf blotch)", "Test D disease control rating": "3*** %"}
{"Compound": "CCO/C(=C\\Oc1ccc(Cn2cc(C(=O)OCCOC)cn2)cc1)C(F)(F)F [compound 222]", "Study System": "Zymoseptoria tritici (the causal agent of wheat leaf blotch)", "Test D disease control rating": "17*** %"}

Query string: What does the record list as Test D disease control rating for CCO/C(=C\Oc1ccc(Cn2cc(C(=O)OCC3CC3)cn2)cc1)C(F)(F)F [compound 220] ?
Result string: 28*** %

Query string: Entry CCO/C(=C\Oc1ccc(Cc2ncc(C(=O)NCC3CC3)s2)cc1)C(F)(F)F [compound 254] : reported Test D disease control rating = ?
Result string: 67*** %

Query string: Sample CC#CCOC(=O)c1cnn(Cc2ccc(O/C=C(\OCC)C(F)(F)F)cc2)c1 [compound 243] — what was its Test D disease control rating?
Result string: 0*** %

Query string: Find the recorded Test D disease control rating belonging to O=C(NCC1CC1)c1cnc(Cc2ccc(OCC(O)(O)C(F)(F)F)cc2)s1 [compound 256] and report it.
Result string: 95*** %

Query string: Given the entry CCO/C(=C\Oc1ccc(Cn2cc(Br)cn2)cc1)C(F)(F)F [compound 183] , report its measured Test D disease control rating.
Result string: 66*** %

Query string: Recorded Test D disease control rating for CCO/C(=C\Oc1ccc(Cn2cc(C(=O)OCCC#N)cn2)cc1)C(F)(F)F [compound 245] , please?
Result string: 18*** %

Query string: Consider the compound shown here: C=C(C)COC(=O)c1cnn(Cc2ccc(O/C=C(\OCC)C(F)(F)F)cc2)c1 [compound 242] What is its recorded Test D disease control rating?
Result string: 27*** %

Data credit: patent US20240122180A1
